Data provenance is the supplement of paper PMC10849652.

- ASSAY_SYSTEM: ZNF579 (UniProt Q8NAF0)
- Sequence (Q8NAF0 whole entry, looked up): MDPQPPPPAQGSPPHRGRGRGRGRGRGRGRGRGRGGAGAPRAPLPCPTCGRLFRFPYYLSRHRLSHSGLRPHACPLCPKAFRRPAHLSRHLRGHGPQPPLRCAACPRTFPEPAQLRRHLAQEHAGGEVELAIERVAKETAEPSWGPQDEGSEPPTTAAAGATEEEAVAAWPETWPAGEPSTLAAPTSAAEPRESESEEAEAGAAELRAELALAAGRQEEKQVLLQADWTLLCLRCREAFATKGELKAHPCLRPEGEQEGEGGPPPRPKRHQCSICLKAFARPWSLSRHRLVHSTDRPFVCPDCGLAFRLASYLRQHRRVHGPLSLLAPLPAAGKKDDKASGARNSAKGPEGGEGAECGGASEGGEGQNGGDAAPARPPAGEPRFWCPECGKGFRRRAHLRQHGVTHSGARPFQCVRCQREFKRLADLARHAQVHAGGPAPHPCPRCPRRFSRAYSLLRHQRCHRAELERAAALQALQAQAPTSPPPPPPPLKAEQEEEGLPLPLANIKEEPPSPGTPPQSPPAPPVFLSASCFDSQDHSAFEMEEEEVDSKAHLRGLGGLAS
- PROTOCOL_DETAILS: log2 fold change, soluble protein after heating vs DMSO (PISA); higher = thermal stabilisation; K562 cells, 10 uM, 30 min; active = over 0.2 and 3.5 SD of the protein, either way, in both replicates (recomputed)
Targets with a hit are over-represented here; the source holds about 7,900 in all. About 0.6% of all pairs of compound and target were hits.
READOUT_NAME: log2 fold change

Record summary for C/C(=N\NC(=O)c1cccc(S(=O)(=O)N2CCOCC2)c1)c1cc(Cl)ccc1O : reported log2 fold change = 0.147 (inactive)

Record summary for Cc1nc(Nc2n[nH]c3c2CN(C(=O)N[C@H](CN(C)C)c2ccccc2)C3(C)C)c2sccc2n1 : reported log2 fold change = -0.115 (inactive)

Record summary for CC(=O)c1cnc2ccc(-c3cc(Cl)c(O)c(Cl)c3)nc2c1N[C@H]1CC[C@H](CN(C)C)CC1 : reported log2 fold change = -0.187 (inactive)

Record summary for Cc1ccc(NC(=O)c2cccc(C(C)(C)C#N)c2)cc1Nc1ccc2ncn(C)c(=O)c2c1 : reported log2 fold change = 0.043 (inactive)

* * *

- ASSAY_SYSTEM: ZER1 (UniProt Q7Z7L7)
- Sequence (Q7Z7L7 whole entry, looked up): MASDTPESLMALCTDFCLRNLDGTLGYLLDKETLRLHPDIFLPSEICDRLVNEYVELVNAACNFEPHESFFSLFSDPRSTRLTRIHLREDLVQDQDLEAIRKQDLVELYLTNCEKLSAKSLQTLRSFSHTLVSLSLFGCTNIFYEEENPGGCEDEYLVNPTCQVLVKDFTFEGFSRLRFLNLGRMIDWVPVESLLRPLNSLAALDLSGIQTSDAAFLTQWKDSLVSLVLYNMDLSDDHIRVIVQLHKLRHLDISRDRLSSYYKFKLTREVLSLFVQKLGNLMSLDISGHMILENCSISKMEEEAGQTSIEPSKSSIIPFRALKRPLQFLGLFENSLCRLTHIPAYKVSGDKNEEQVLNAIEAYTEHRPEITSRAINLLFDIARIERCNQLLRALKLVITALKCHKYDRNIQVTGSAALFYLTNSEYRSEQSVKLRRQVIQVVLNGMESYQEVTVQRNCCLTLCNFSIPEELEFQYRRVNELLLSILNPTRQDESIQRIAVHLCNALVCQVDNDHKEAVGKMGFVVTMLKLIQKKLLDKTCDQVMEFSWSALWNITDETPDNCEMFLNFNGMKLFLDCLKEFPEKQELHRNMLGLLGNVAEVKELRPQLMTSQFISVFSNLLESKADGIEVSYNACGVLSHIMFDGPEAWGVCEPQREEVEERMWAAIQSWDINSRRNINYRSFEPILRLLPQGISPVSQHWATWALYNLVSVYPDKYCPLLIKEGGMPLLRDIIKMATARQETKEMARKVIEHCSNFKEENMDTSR
- PROTOCOL_DETAILS: log2 fold change, soluble protein after heating vs DMSO (PISA); higher = thermal stabilisation; K562 cells, 10 uM, 30 min; active = over 0.2 and 3.5 SD of the protein, either way, in both replicates (recomputed)
Targets with a hit are over-represented here; the source holds about 7,900 in all. About 0.6% of all pairs of compound and target were hits.
Label MET for high-side log2 fold change (at or above -0.09) and NOT MET for low-side log2 fold change (below it).

**Query** Answer whether log2 fold change of CCn1cc(-c2ccnc3[nH]c(-c4cccc(CN(C)C)c4)cc23)c(-c2ccc(NC(=O)N(C)C)cc2)n1 is greater than or equal to -0.09.
**Result** NOT MET

**Query** Answer whether log2 fold change of CS(=O)(=O)N1CCN(Cc2cc3nc(-c4cccc5[nH]ncc45)nc(N4CCOCC4)c3s2)CC1 is greater than or equal to -0.09.
**Result** MET

**Query** Answer whether log2 fold change of CN(C)CC(=O)Nc1ccc2[nH]c(=O)c3ccccc3c2c1 is greater than or equal to -0.09.
**Result** NOT MET

**Query** Answer whether log2 fold change of CCCc1cc(C)[nH]c(=O)c1CNC(=O)c1cc(-c2ccnc(N3CCN(C)CC3)c2)cc2c1cnn2C(C)C is greater than or equal to -0.09.
**Result** NOT MET

**Query** Answer whether log2 fold change of Fc1ccc(Cl)cc1-c1nc(Nc2ccncc2)c2nccnc2n1 is greater than or equal to -0.09.
**Result** MET

**Query** Answer whether log2 fold change of Cc1ccc(Sc2cncc3sc(C(N)=O)cc23)cc1 is greater than or equal to -0.09.
**Result** MET

**Query** Answer whether log2 fold change of C[C@@H](N)c1ccc(C(=O)Nc2ccnc3[nH]ccc23)cc1 is greater than or equal to -0.09.
**Result** MET

**Query** Answer whether log2 fold change of Cc1cn(-c2cc(NC(=O)c3ccc(C)c(Nc4nccc(-c5cccnc5)n4)c3)cc(C(F)(F)F)c2)cn1 is greater than or equal to -0.09.
**Result** MET

**Query** Answer whether log2 fold change of Cc1cc(SCc2sc(-c3ccc(C(F)(F)F)cc3)nc2C)ccc1OCC(=O)O is greater than or equal to -0.09.
**Result** MET

**Query** Answer whether log2 fold change of CNc1nc(-c2ccc3c(N)n[nH]c3c2)cc(N2C[C@@H](C(=O)NC3CCCCC3)CC[C@H]2C)n1 is greater than or equal to -0.09.
**Result** NOT MET

**Query** Answer whether log2 fold change of CCCS(=O)(=O)Nc1ccc(F)c(C(=O)c2c[nH]c3ncc(-c4ccc(Cl)cc4)cc23)c1F is greater than or equal to -0.09.
**Result** MET

**Query** Answer whether log2 fold change of CN1CCC(CNc2ccc3ncc(-c4cccc(OC(F)(F)F)c4)n3n2)CC1 is greater than or equal to -0.09.
**Result** NOT MET

**Query** Answer whether log2 fold change of COc1cc(Nc2ncc3c(n2)-c2ccc(Cl)cc2C(c2c(F)cccc2OC)=NC3)ccc1C(=O)O is greater than or equal to -0.09.
**Result** MET

**Query** Answer whether log2 fold change of COc1cc2ncnc(Nc3ccc(F)c(Cl)c3)c2cc1OCCCN1CCOCC1 is greater than or equal to -0.09.
**Result** MET

**Query** Answer whether log2 fold change of Cc1ccc(NC(=O)c2ccc(CN3CC[C@H](N(C)C)C3)c(C(F)(F)F)c2)cc1Nc1nccc(-c2cncnc2)n1 is greater than or equal to -0.09.
**Result** MET

**Query** Answer whether log2 fold change of CN1CCN(c2nc(C3=C(c4c[nH]c5ccccc45)C(=O)NC3=O)c3ccccc3n2)CC1 is greater than or equal to -0.09.
**Result** MET

**Query** Answer whether log2 fold change of O=C(CCCCCCNC(=O)c1cnc(N(c2ccccc2)c2ccccc2Cl)nc1)NO is greater than or equal to -0.09.
**Result** MET
